Data origin: patent US20150147274A1

system_under_test: T1, MET928 (cMET protein derived from construct 25-928) (human, UniProt P08581 25-928)
T1 construct: MET ectodomain, residues 1-24 are the leader; produced in Lec 8 cells; background text says the ectodomain is furin-cleaved into alpha (25-307) and beta chains; biotinylated form used in selections; also called MET928 extracellular domain; Met extracellular domain
test: Biacore SPR, MET-928 on chip, scFv format
Catalogue of kon values
reported_metric: kon (M⁻¹ s⁻¹)

binder	reported_metric	assay_value
110_A06 scFv (6xHis/tri-Flag tags) (scFv, 7A2 derivative, only VH CDR3 changed; also called 110_A6; not shown: 6xHis/tri-FLAG tags of pSANG10-3F) scFv: QMQLVQSGAEVKKPGAPVKVSCKVSGYTFTDYYMHWVQQAPGKGLEWMGLVDPEDGETIYAEKFQGRVTITADTSTDTAYMELSSLRSEDTAVYYCATDATTPYWGMQLWGQGTLVTVSSLEGGGGSGGGGSGGGASDIQMTQSPSSLSASVGDRVTITCQASQDISNYLNWYQQKPGRAPKVLIYDASNLETGVPSRFSGSGSGTEFTLTISNLRPDDFATYYCQQGDSFPLTFGGGTKVEIK	kon	3.45e+07
107_A08 scFv (6xHis/tri-Flag tags) (scFv, 7A2 derivative, only VH CDR3 changed; not shown: 6xHis/tri-FLAG tags of pSANG10-3F) scFv: QMQLVQSGAEVKKPGAPVKVSCKVSGYTFTDYYMHWVQQAPGKGLEWMGLVDPEDGETIYAEKFQGRVTITADTSTDTAYMELSSLRSEDTAVYYCATDATTPYWGMVEWGQGTLVTVSSLEGGGGSGGGGSGGGASDIQMTQSPSSLSASVGDRVTITCQASQDISNYLNWYQQKPGRAPKVLIYDASNLETGVPSRFSGSGSGTEFTLTISNLRPDDFATYYCQQGDSFPLTFGGGTKVEIK	kon	2.52e+07
112_G01 scFv (6xHis/tri-Flag tags) (scFv, not shown: 6xHis/tri-FLAG tags) scFv: QMQLVQSGAEVKKPGAPVKVSCKVSGYTFTDYYMHWVQQAPGKGLEWMGLVDPEDGETIYAEKFQGRVTITADTSTDTAYMELSSLRSEDTAVYYCATDATTPYWGMWHWGQGTLVTVSSLEGGGGSGGGGSGGGASDIQMTQSPSSLSASVGDRVTITCQASQDISNYLNWYQQKPGRAPKVLIYDASNLETGVPSRFSGSGSGTEFTLTISNLRPDDFATYYCQQGDSFPLTFGGGTKVEIK	kon	3.03e+06
